Test: Antiviral activity against Cowpox virus Brighton infected in HFF cells incubated for 3 days by plaque reduction assay
Assay type: functional, cell-based, Cowpox virus (Brighton Red)
Conditions: hff
value_type: pIC50
API: returns pIC50 as number; meaning -log10 of concentration in mol/L.

compound: CC(C)CNC(=O)[C@@H](N)Cc1ccc(OP2(=O)CO[C@@H](Cn3cnc4c(N)ncnc43)CO2)cc1 (mixture of isomers; form 3)
recorded_measurement: 5.60

Problem: For CC(C)CNC(=O)[C@@H](N)Cc1ccc(OP2(=O)CO[C@@H](Cn3cnc4c(N)ncnc43)CO2)cc1.Cl (mixture of isomers; form 2) , what is its reported pIC50?
Result: 5.70

Problem: Now consider CC(C)OC(=O)[C@@H](N)Cc1ccc(OP2(=O)CO[C@@H](Cn3ccc(N)nc3=O)CO2)cc1 (mixture of isomers; form 1) .
Result: 4.40

Problem: Please do the same for CC(C)OC(=O)[C@@H](N)Cc1ccc(OP2(=O)CO[C@@H](Cn3ccc(N)nc3=O)CO2)cc1 (mixture of isomers; form 2) as well.
Result: 5.00

Problem: Moving on to COC(=O)[C@@H](N)Cc1ccc(OP2(=O)CO[C@@H](Cn3cnc4c(N)ncnc43)CO2)cc1 (mixture of isomers; form 2)
Result: 5.46

Problem: And what about the compound CC(C)CNC(=O)[C@@H](N)Cc1ccc(OP2(=O)CO[C@@H](Cn3cnc4c(N)ncnc43)CO2)cc1 (mixture of isomers; form 1) ?
Result: 5.15
